- Tested on: YGL062W
- protocol summary: TOR pathway GFP reporter clone modulation in yeast – S. cerevisiae, GFP-tagged clone panel, flow cytometry (AID 504473);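 also: median GFP fluorescence of the cells measured by high-throughput flow cytometry; test concentration not given here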
- condition details: S. cerevisiae GFP-tagged strains, 3 h
Active and inactive are the calls of the source.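 The calls were made as follows: active = GFP ratio to DMSO above 1.5 or below 0.66; inactive = the rest.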
Outcomes: 1 (yes) (active), 0 (no) (inactive)

input smiles	experimental system	assigned label
CNc1nc(N)c([N+](=O)[O-])c(Nc2cccc(Cl)c2)n1	YGL062W	1 (yes)
CNc1nc(N)c([N+](=O)[O-])c(Nc2cccc(F)c2)n1	YGL062W	1 (yes)
CNc1nc(N)c([N+](=O)[O-])c(Nc2ccccc2OC)n1	YGL062W	0 (no)
CO[C@H]1C[C@@H]2CC[C@@H](C)[C@@](O)(O2)C(=O)C(=O)N2CCCC[C@H]2C(=O)O[C@H]([C@H](C)C[C@@H]2CC[C@@H](O)[C@H](OC)C2)CC(=O)[C@H](C)/C=C(\C)[C@@H](O)[C@@H](OC)C(=O)[C@H](C)C[C@H](C)/C=C/C=C/C=C/1C	YGL062W	1 (yes)
CNc1nc(N)c([N+](=O)[O-])c(Nc2ccccc2)n1	YGL062W	0 (no)

====

- Test system: YPR132W
- protocol summary: TOR pathway GFP reporter clone modulation in yeast – S. cerevisiae, GFP-tagged clone panel, flow cytometry (AID 504473);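 also: median GFP fluorescence of the cells measured by high-throughput flow cytometry; test concentration not given here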
- condition details: S. cerevisiae GFP-tagged strains, 3 h
Calls of active or inactive are those of the source.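 How the source made its calls: active means GFP ratio to DMSO above 1.5 or below 0.66; inactive means the rest.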
quantity name: GFP ratio to DMSO

input smiles	quantity name	result
CNc1nc(N)c([N+](=O)[O-])c(Nc2ccccc2)n1	GFP ratio to DMSO	1.18 (inactive)
CNc1nc(N)c([N+](=O)[O-])c(Nc2cccc(Cl)c2)n1	GFP ratio to DMSO	1.13 (inactive)
CO[C@H]1C[C@@H]2CC[C@@H](C)[C@@](O)(O2)C(=O)C(=O)N2CCCC[C@H]2C(=O)O[C@H]([C@H](C)C[C@@H]2CC[C@@H](O)[C@H](OC)C2)CC(=O)[C@H](C)/C=C(\C)[C@@H](O)[C@@H](OC)C(=O)[C@H](C)C[C@H](C)/C=C/C=C/C=C/1C	GFP ratio to DMSO	0.366
CNc1nc(N)c([N+](=O)[O-])c(Nc2cccc(F)c2)n1	GFP ratio to DMSO	0.841 (inactive)
CNc1nc(N)c([N+](=O)[O-])c(Nc2ccccc2OC)n1	GFP ratio to DMSO	1.76

====

Below: a set of entries, each annotated with reported GFP ratio to DMSO.
- System: YDL204W
- protocol summary: TOR pathway GFP reporter clone modulation in yeast – S. cerevisiae, GFP-tagged clone panel, flow cytometry (AID 504473);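 also: median GFP fluorescence of the cells measured by high-throughput flow cytometry; test concentration not given here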
- condition details: S. cerevisiae GFP-tagged strains, 3 h

input smiles	GFP ratio to DMSO
CO[C@H]1C[C@@H]2CC[C@@H](C)[C@@](O)(O2)C(=O)C(=O)N2CCCC[C@H]2C(=O)O[C@H]([C@H](C)C[C@@H]2CC[C@@H](O)[C@H](OC)C2)CC(=O)[C@H](C)/C=C(\C)[C@@H](O)[C@@H](OC)C(=O)[C@H](C)C[C@H](C)/C=C/C=C/C=C/1C	1.4
CNc1nc(N)c([N+](=O)[O-])c(Nc2ccccc2OC)n1	0.703
CNc1nc(N)c([N+](=O)[O-])c(Nc2ccccc2)n1	0.948
CNc1nc(N)c([N+](=O)[O-])c(Nc2cccc(Cl)c2)n1	0.851
CNc1nc(N)c([N+](=O)[O-])c(Nc2cccc(F)c2)n1	1.33

Source of measurements: PubChem BioAssay AID504473
